Test system: human APP co-expressed in HEK 293T cells
Assay: α-CTF produced by APP co-expressed in HEK 293T cells (Western blot)
Format: cell-based
Conditions: ApoE CT positive control
ATTRIBUTE MEASURED: degree of α-CTF increase compared to ApoE CT

| MOLECULE | VALUE |
| --- | --- |
| CT A36/74: SEQ ID NO: 52; ApoE CT mutant R36A + T74A (R251A + T289A of SEQ ID NO: 12) (protein) ARMEEMGSRTRDRLDEVKEQVAEVRAKLEEQAQQIALQAEAFQARLKSWFEPLVEDMQRQWAGLVEKVQAAVGASAAPVPSDNH | even higher |
| CT A80: SEQ ID NO: 51; ApoE CT mutant P80A (P295A of SEQ ID NO: 12) (protein) ARMEEMGSRTRDRLDEVKEQVAEVRAKLEEQAQQIRLQAEAFQARLKSWFEPLVEDMQRQWAGLVEKVQAAVGTSAAPVASDNH | even higher |
| CT A72: SEQ ID NO: 50; ApoE CT mutant V72A (V287A of SEQ ID NO: 12) (protein) ARMEEMGSRTRDRLDEVKEQVAEVRAKLEEQAQQIRLQAEAFQARLKSWFEPLVEDMQRQWAGLVEKVQAAAGTSAAPVPSDNH | even higher |
